target_system: HLA-DR DRB1*01:01 (Homo sapiens, UniProt P01903+P01911, A100R/D57E/F55L/F60I/F76Y/I96L/L162R/M171V/P40L/Q125E/R42F/V115G/Y59C)
procedure_text: biochemical
Type: binding
run_parameters: read-out: Binding capacity/IC50 (nM) DRB1*01:01
Ends that are not written are not given here.
observation_type: IC50 (nM)
Hi! Could you send only the number? It should be in nM, unit omitted.

# substance, unit_annotation, measured_result
rows = [
    ("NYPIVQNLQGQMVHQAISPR-NH2 [p17(131-132)/p24(1-18)]", "nM", 4.4),
    ("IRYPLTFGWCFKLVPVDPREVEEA-NH2 [nef(133-156)]", "nM", 315),
    ("IVALIIAIVVWTIV-NH2 [vpu(13-26)]", "nM", 261),
    ("SEELRSLYNTVATLYCVHQ-NH2 [p17(72-90)]", "nM", 20),
]

Now examine the next entry.
Read off the recorded IC50 for DEELLKAVRIIKILYQSNP-NH2 [rev(9-27)]
7.4
